# Tested on: MOLT-4 leukemia
# Method Summary: NCI-60 one-dose screen, 48 h
# Setup Conditions: 10 µM unless noted
This is part of a sample that, as a whole, favours compounds with a hit. Of some 83,000 tested, about 20% had one in any assay. Activity calls are given as the source filed them. The calls were made as follows: active = growth percent below 10; inactive = the rest.
Hello, when you answer, please use one of the following outcomes: active, inactive

{"Compound": "CN1CCN(Cc2ccc(NC(=O)c3cncc(C#Cc4cnc(N)c5cnccc45)c3)cc2C(F)(F)F)CC1", "Label Class": "inactive"}
{"Compound": "COc1cc2c(cc1OCCCCCn1c3ccccc3c3ccccc31)N=C[C@@H]1CCCN1C2=O", "Label Class": "active"}
{"Compound": "COC(=O)C1CCCN1C(=O)[C@@H]1CCCN1C(=O)[C@H](Cc1c[nH]c2ccccc12)NC(=S)Nc1cc(C(F)(F)F)cc(C(F)(F)F)c1 (stereo not given in full)", "Label Class": "inactive"}
{"Compound": "COc1cc(Nc2nc(N[C@H]3CCCC[C@@H]3N)nc3cc[nH]c(=O)c23)cc(OC)c1", "Label Class": "active"}
{"Compound": "COc1ccc(N=Cc2c(O)ccc3c2oc2cc(Cl)c(O)c(Cl)c23)cc1", "Label Class": "inactive"}
{"Compound": "CCCOC(=O)n1cccc1", "Label Class": "inactive"}

Q. What outcome does the record of this test show for "Cn1c(=O)cc(NC(=O)CN2CCN(c3cc4c(cc3F)c(=O)c(C(=O)O)cn4C3CC3)CC2)[nH]c1=O" ?
A. inactive

Q. What outcome does the record of this test show for "COc1ccc(-c2ccc(-c3ccc(C(=N)N)cn3)s2)cc1OC" ?
A. inactive

Q. What outcome does the record of this test show for "COc1ccc(Nc2nn3c(C)cc(C)nc3c2C(=O)Nc2ccc(C)cc2)c(OC)c1" ?
A. inactive

Q. What outcome does the record of this test show for "O=C1Nc2ccc3c(c2/C1=C\c1cc2c(cc1Br)OCO2)OCO3" ?
A. inactive

Q. What outcome does the record of this test show for "O=C1NC(=C(Cl)Cl)/C(=N/S(=O)(=O)N2CCC(C3(C(F)(F)F)N=N3)CC2)N1" ?
A. inactive

====

# Tested on: EKVX NSCLC
# Method Summary: NCI-60 one-dose screen, 48 h (100 = growth as untreated, 0 = no growth, -100 = all killed)
# Setup Conditions: 10 µM unless noted
The panel holds about 83,000 compounds, 20% with a hit somewhere; the sample as a whole holds those more often.
// growth lookup, one value per entry
Please respond with the number in % and leave the unit unwritten.

Q. Looking for the measured growth of "COc1ccc(-c2nc(/C=N/Nc3cc(C)nc4ccc(Cl)cc34)c(C)o2)cc1" , can you help?
A. -19.4

Q. Looking for the measured growth of O=C1c2c(Cl)c(Cl)c(Cl)c(Cl)c2C(=O)C2(Cl)CC=CCC12Cl (stereo not given) , can you help?
A. 98.7

Q. Looking for the measured growth of "O=C(NNC(=S)Nc1ccccc1)c1cc2ccc1CCc1ccc(cc1)CC2" , can you help?
A. 76.3

Q. Looking for the measured growth of "N=C(N)c1ccc(-c2ccc(-c3cncc4ccccc34)s2)cc1F" , can you help?
A. -77

Q. Looking for the measured growth of "O=C(/C=C\c1cccc([N+](=O)[O-])c1)/C=C/c1cccc([N+](=O)[O-])c1" , can you help?
A. 107

====

# System: OVCAR-8 ovarian
# Method Summary: NCI-60 one-dose screen, 48 h (100 = growth as untreated, 0 = no growth, -100 = all killed)
# Setup Conditions: 10 µM unless noted
About 83,000 compounds went through this panel and 20% of them were active in at least one assay; those are over-represented in the sample as a whole.
Classification field: condition met = growth at or over 90%; condition not met = growth under 90%.

Below are worked cases with known answers.
{"Molecular String": "Nc1nc(-c2ccccc2)c(CCCOc2ccc(NC(=O)CBr)cc2)c(=O)[nH]1", "Label Class": "condition met"}
{"Molecular String": "O=[N+]([O-])c1cnc(Sc2ccncn2)s1", "Label Class": "condition not met"}
{"Molecular String": "C/C(=C\\c1ccc(OCC(=O)O)c(Cl)c1Cl)[N+](=O)[O-]", "Label Class": "condition met"}
{"Molecular String": "CCc1ccc(-c2ccc(=O)n(-c3ccc(S(N)(=O)=O)cc3)n2)cc1", "Label Class": "condition not met"}
{"Molecular String": "COc1cc(-c2nn(-c3cccc(NC(=O)Nc4cccc(C(F)(F)F)c4)c3)cc2-c2ccncc2)ccc1Cl", "Label Class": "condition not met"}

Q. Confirm if growth reported for the compound "CCCCCCCC/C=C/CCCCCCCC1=NC(C)(C)CN1C(C)(C)CO" is 90% or above.
A. condition not met

Q. Confirm if growth reported for the compound "CC(=O)Nc1scc[n+]1Cc1ccccc1" is 90% or above.
A. condition met

Q. Confirm if growth reported for the compound "COc1cc(NC(N)=NCCC(C)(C)Oc2ccc(C(F)(F)F)cc2)ncc1C#N" is 90% or above.
A. condition not met

Q. Confirm if growth reported for the compound "O=C(NNC(=O)N1c2ccccc2C=Cc2ccccc21)c1ccc2ccccc2c1" is 90% or above.
A. condition met

Q. Confirm if growth reported for the compound "Clc1ccccc1-c1nc2ccccc2[nH]1" is 90% or above.
A. condition met

====

# Test system: CAKI-1 renal
# Method Summary: NCI-60 one-dose screen, 48 h (100 = growth as untreated, 0 = no growth, -100 = all killed)
# Setup Conditions: 10 µM unless noted
About 83,000 compounds went through this panel and 20% of them were active in at least one assay; those are over-represented in the sample as a whole.
Classification field: y = growth at or over 90%; n = growth under 90%.

Below are worked cases with known answers.
{"Molecular String": "OCc1ncc(-c2ccccc2)s1", "Label Class": "n"}
{"Molecular String": "COc1ccc(OC)c(/C=C2\\Oc3cc(OCCCN4CCCC4)ccc3C2=O)c1", "Label Class": "n"}

Q. Confirm if growth reported for the molecule "CC(C)c1ccc2occ(C=C3C(=O)NC(=O)NC3=O)c(=O)c2c1" is 90% or above.
A. y

====

# Tested on: RPMI-8226 leukemia
# Method Summary: NCI-60 one-dose screen, 48 h (100 = growth as untreated, 0 = no growth, -100 = all killed)
# Setup Conditions: 10 µM unless noted
This is part of a sample that, as a whole, favours compounds with a hit. Of some 83,000 tested, about 20% had one in any assay.
Readout Kind: growth (%)
Please respond with the number in % and leave the unit unwritten.

Sample answers from the record:
{"Molecule": "COP(=O)(OC)/C(=N\\NS(=O)(=O)c1ccc(C)cc1)c1ccccc1", "Reported Value": 109}
{"Molecule": "CCN(CC)CCC(CNc1ccnc2cc(Cl)ccc12)c1ccc(Cl)cc1 (stereo not drawn)", "Reported Value": -0.553}
{"Molecule": "C=C(C)[C@@H]1CC[C@]2(C(=O)N3CCNCC3)CC[C@]3(C)[C@H](CC[C@@H]4[C@@]5(C)C/C(=C/c6ccncc6)C(=O)C(C)(C)[C@@H]5CC[C@]43C)[C@@H]12", "Reported Value": 98.2}
{"Molecule": "Cc1ccc(S(=O)(=O)Nc2c(Br)cc(Br)cc2C(N)=O)cc1", "Reported Value": 95.2}
{"Molecule": "Cc1ccc(S(=O)(=O)/C(=C\\c2ccc(Cl)cc2)C(=O)c2ccccc2)cc1", "Reported Value": 103}

Q. Looking for the measured growth of CN(CCCCCl)P(=O)(OCc1ccc([N+](=O)[O-])o1)C(F)(F)C[C@H](NC(=O)CNC(=O)c1ccc(N=[N+]=[N-])cc1)C(=O)NCCc1ccc(O)cc1 (stereo partly drawn) , can you help?
A. 87.3

Q. Looking for the measured growth of CC(C)(C)OC(=O)NC(CSCc1ccccc1)C(=O)ON1C(=O)CCC1=O (stereo not drawn) , can you help?
A. 97.5

Q. Looking for the measured growth of "C=C1C(=O)O[C@H]2[C@H]1CC/C(Cn1cc(CNC(=O)c3cc4ccccc4[nH]3)nn1)=C\CC[C@@]1(C)O[C@@H]21" , can you help?
A. -11.5

====

# Tested on: HCC-2998 colon
# Method Summary: NCI-60 one-dose screen, 48 h
# Setup Conditions: 10 µM unless noted
Compounds without any hit were thinned out: in the full panel of roughly 83,000, 20% have a hit. The source made the active and inactive calls. Rule for the calls: active = growth percent below 10; inactive = the rest.
Hello, when you answer, please use one of the following outcomes: 1 (yes) (active), 0 (no) (inactive)

{"Molecule": "COC(=O)C1CCCN1C(=O)[C@@H]1CCCN1C(=O)[C@H](Cc1c[nH]c2ccccc12)NC(=S)Nc1cc(C(F)(F)F)cc(C(F)(F)F)c1 (some centres undefined)", "Label Class": "0 (no)"}

Q. What outcome does the record of this test show for "C=C1C(=O)O[C@H]2[C@H]1CC/C(Cn1cc(-c3cccc(Cl)c3)nn1)=C\CC[C@@]1(C)O[C@@H]21" ?
A. 1 (yes)

Q. What outcome does the record of this test show for "COc1ccc(-c2cn(-c3cccc(C(=O)/C=C/c4cc(OC)c(OC)c(OC)c4)c3)c(=O)[nH]2)cc1OC" ?
A. 0 (no)

Q. What outcome does the record of this test show for COc1ccc2c(c1)NC1=C(C(=O)OC1)C2c1cc(OC)c2c(c1)OCO2 (centres undefined) ?
A. 0 (no)

Q. What outcome does the record of this test show for "CN(C)CCCN(c1nc(C(Cl)(Cl)Cl)ns1)c1nc(C(Cl)(Cl)Cl)ns1" ?
A. 1 (yes)

Q. What outcome does the record of this test show for "CC(C)(C)Nc1c(-c2cccs2)nc2ncccn12" ?
A. 0 (no)

Q. What outcome does the record of this test show for "COc1cc2c(cc1OCCCN1CCN(CCCn3c4ccccc4c4ccccc43)CC1)N=C[C@@H]1CCCN1C2=O" ?
A. 1 (yes)

Q. What outcome does the record of this test show for "Brc1cccc(-c2cc(-c3ccc4c(c3)OCCCO4)[nH]n2)c1" ?
A. 0 (no)

Q. What outcome does the record of this test show for "Oc1ccc(Cl)cc1-c1cc(-c2ccc(F)cc2)n[nH]1" ?
A. 0 (no)
